Test system: VDR:RXRa (NR concentration 270 nM, RXRa partner concentration 90 nM)
Assay: PBM binding z-score (relative to random genomic background probes); higher = stronger binding; sequences stand for … in GC…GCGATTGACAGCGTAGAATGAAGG

[
  {
    "seqString": "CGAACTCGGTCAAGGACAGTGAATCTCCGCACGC",
    "PBM binding z-score": 0.0619
  },
  {
    "seqString": "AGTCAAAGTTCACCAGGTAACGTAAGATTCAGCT",
    "PBM binding z-score": 4.61
  },
  {
    "seqString": "GATACTGGGTCAGCTAGAGGCCAGAGTATGGAAA",
    "PBM binding z-score": 0.938
  },
  {
    "seqString": "ACTATTAGTTGACTTAGGGCATCCGATACGACGC",
    "PBM binding z-score": 0.439
  },
  {
    "seqString": "CCGACTGGAGCAGAAAGGTTACCATACCATCCGG",
    "PBM binding z-score": 0.564
  },
  {
    "seqString": "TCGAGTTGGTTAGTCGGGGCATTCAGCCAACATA",
    "PBM binding z-score": 0.43
  },
  {
    "seqString": "CCTTACGTGTCACTCCAGGTTATAGCATCGGAGT",
    "PBM binding z-score": 1.33
  },
  {
    "seqString": "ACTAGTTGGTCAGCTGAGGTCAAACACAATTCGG",
    "PBM binding z-score": 4.9
  },
  {
    "seqString": "CCTCGAAGGACAACAGGAGGTCAGAGCTGCCAGA",
    "PBM binding z-score": 1.73
  },
  {
    "seqString": "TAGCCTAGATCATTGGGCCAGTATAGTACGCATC",
    "PBM binding z-score": -0.685
  },
  {
    "seqString": "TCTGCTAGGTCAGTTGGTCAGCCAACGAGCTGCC",
    "PBM binding z-score": -0.0135
  },
  {
    "seqString": "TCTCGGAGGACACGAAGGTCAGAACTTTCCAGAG",
    "PBM binding z-score": 2.18
  },
  {
    "seqString": "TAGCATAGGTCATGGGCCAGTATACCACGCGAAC",
    "PBM binding z-score": 3.33
  },
  {
    "seqString": "TAGCCTCGGTCAGATCGGGCCAGTATACGCTATA",
    "PBM binding z-score": -0.637
  },
  {
    "seqString": "CTACCAAGGTGAACAAGGTCGTCGATTACTATTC",
    "PBM binding z-score": 5.98
  },
  {
    "seqString": "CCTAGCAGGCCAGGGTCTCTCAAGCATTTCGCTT",
    "PBM binding z-score": -0.712
  },
  {
    "seqString": "CTCGAAAGGTCGTGCTCAGGTGAGTATACCAAAC",
    "PBM binding z-score": 3.39
  },
  {
    "seqString": "GCTGCTAGGTCAACTTATGGTCAGCTAAAGCTCG",
    "PBM binding z-score": 2.04
  },
  {
    "seqString": "TCTTGTAGATCAAAAGGAGGTTAAGAAAGATCGA",
    "PBM binding z-score": 0.807
  },
  {
    "seqString": "AGTCAAAGTTCATCTAGGTAACGCAAGATATGCT",
    "PBM binding z-score": 4.91
  },
  {
    "seqString": "CAGCCTAGGTCAGGGCCAGCATAGGAGGAACGTT",
    "PBM binding z-score": 0.0584
  },
  {
    "seqString": "GCGACTGGAGCAAAGCAGGTTACCATAAGGTTGG",
    "PBM binding z-score": -0.418
  },
  {
    "seqString": "TATACAGGGTCAAAGGCTAGAGTACGAATGTCGA",
    "PBM binding z-score": 4.8
  },
  {
    "seqString": "GCTAGTCGGTCAGTAAAAGGTCACACACCGGTCG",
    "PBM binding z-score": 4.18
  },
  {
    "seqString": "ACTATTAGTTGAGTTAGGGCAACCGATACGACGC",
    "PBM binding z-score": 0.0394
  },
  {
    "seqString": "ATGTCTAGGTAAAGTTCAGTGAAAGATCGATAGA",
    "PBM binding z-score": 1.8
  },
  {
    "seqString": "CCTACTGGGCCAAAGGTCATTGGTTCCAATGCTC",
    "PBM binding z-score": 4.8
  },
  {
    "seqString": "CTCGAAAGGTCGGTTGAAGTGAGTATACGGATAA",
    "PBM binding z-score": 1.23
  },
  {
    "seqString": "CTGAGTAGGTTATGGGGCATTCAGGCAACGGTGA",
    "PBM binding z-score": 0.0973
  },
  {
    "seqString": "ATCTCTACGTAAGACTCAGTTCAGTGAAGAACGC",
    "PBM binding z-score": 0.645
  },
  {
    "seqString": "TCTTGAAGATCAATAGAGGTTAAGAAAGTGCGCT",
    "PBM binding z-score": 1.92
  },
  {
    "seqString": "CAAGCTAGGTCACCGGAAGGTCAAAGTCCGCATG",
    "PBM binding z-score": 6.18
  },
  {
    "seqString": "CCTTACGGGGCACTGACAGGTTATAGCATTTGGA",
    "PBM binding z-score": -0.341
  },
  {
    "seqString": "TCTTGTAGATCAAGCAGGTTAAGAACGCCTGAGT",
    "PBM binding z-score": 0.768
  },
  {
    "seqString": "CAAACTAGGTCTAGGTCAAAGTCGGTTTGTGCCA",
    "PBM binding z-score": 1.84
  },
  {
    "seqString": "CTAGAAAGGTCGTGCTCAGGTGAGTATACCAAAC",
    "PBM binding z-score": 3.1
  }
]
